assayed.target: Human lung tryptase
assay: Ki determination, human lung tryptase (Tosyl-Gly-Pro-Arg-pNA substrate)
condition.description: 50 mM Tris-HCl pH 8.0, 37° C., 1 nM tryptase, 320 μM GPR-pNA; read-out: Experimentally Determined Ki, Tryptase
pKi listing for selected compounds.
Reminder that pKi means the negative base-10 logarithm of the concentration expressed in mol/L.

Worked cases, pKi given:
N=C(N)c1cccc(S(=O)(=O)NCc2ccc(OCCCCCCCOc3ccc(CNS(=O)(=O)c4cccc(C(=N)N)c4)cc3)cc2)c1 [Example 45] = 6.10
N=C(N)c1ccc(C(=O)NCc2cccc(OCCCCCOc3cccc(CNC(=O)c4ccc(C(=N)N)cc4)c3)c2)cc1 [Example 76] = 8.30

What measured pKi is associated with N=C(N)c1ccc(S(=O)(=O)NCc2ccc(OCCCCCCOc3ccc(CNS(=O)(=O)c4ccc(C(=N)N)cc4)cc3)cc2)cc1 [Example 44] on Human lung tryptase?
5.49
